Where do these numbers come from? They come from patent US20240058450A1.

# Ki annotations
target: Bcl-xL (Homo sapiens); assay: Time Resolved-Fluorescence Resonance Energy Transfer (TR-FRET) binding assay, competition with probe F-Bak; conditions: in the presence of 1% HS; read-out: Bcl-xL Binding Ki (nM, 1% HS)
assay readout: Ki (nM)

1) Cc1c(-c2ccc(-c3ccc4c(c3)N(C(=O)Nc3nc5ccccc5s3)CCC4)nc2C(=O)O)cnn1CC12CC3(C)CC(C)(C1)CC(OCCNCCC(=O)O)(C3)C2 [Example 1.62]	0.2
2) Cc1c(-c2ccc(N3CCc4cccc(C(=O)Nc5nc6ccccc6s5)c4C3)nc2C(=O)O)cnn1CC12CC3(C)CC(C)(C1)CC(OCCNC(=O)[C@@H](N)CS(=O)(=O)O)(C3)C2 [Example 1.15]	0.39
3) CNCCOC12CC3(C)CC(C)(CC(Cn4ncc(-c5ccc(N6CCc7c(OCC(=O)O)ccc(C(=O)Nc8nc9ccccc9s8)c7C6)nc5C(=O)O)c4C)(C3)C1)C2 [Example 1.41]	0.81
4) Cc1c(-c2ccc(N3CCc4cccc(C(=O)Nc5nc6ccccc6s5)c4C3)nc2C(=O)O)cnn1CC12CC3(C)CC(C)(C1)CC(NC(=O)CNCCS(=O)(=O)O)(C3)C2 [Example 1.89]	0.97
5) Cc1c(-c2ccc(N3CCc4cccc(C(=O)Nc5nc6cccnc6s5)c4C3)nc2C(=O)O)cnn1CC12CC3(C)CC(C)(C1)CC(OCCNCCCP(=O)(O)O)(C3)C2 [Example 1.40]	6.28

====

system: permeabilized Molt-4 cells; assay: JC-1 percent depolarization assay in digitonin permeabilized Molt-4 cells; type: cell-based; conditions: Homo sapiens
pEC50: −log10 of the molar value.
Readings of pEC50 for the listed compounds
assay readout: pEC50

1) Cc1c(-c2ccc(-c3cnc4cccc(C(=O)Nc5nc6ccccc6s5)c4c3)nc2C(=O)O)cnn1CC12CC3(C)CC(C)(C1)CC(OCCNCCS(=O)(=O)O)(C3)C2 [Example 1.69]	9.85
2) CNCCOC12CC3(C)CC(C)(CC(Cn4ncc(-c5ccc(N6CCc7c(OCC(=O)O)ccc(C(=O)Nc8nc9ccccc9s8)c7C6)nc5C(=O)O)c4C)(C3)C1)C2 [Example 1.41]	9.25
3) Cc1c(-c2ccc(N3CCc4cccc(C(=O)Nc5nc6ccccc6s5)c4C3)nc2C(=O)O)cnn1CC12CC3(C)CC(C)(C1)CC(OCCNC[C@@H](O)[C@@H](O)[C@H](O)CO)(C3)C2 [Example 1.76]	9.59

====

molecular target: Bcl-xL (Homo sapiens); experiment: Time Resolved-Fluorescence Resonance Energy Transfer (TR-FRET) binding assay, competition with probe F-Bak; settings: without HS; read-out: Bcl-xL Binding Ki
pKi: −log10 of the molar value.
# pKi per record follows
assay readout: pKi

1) Cc1c(-c2ccc(-c3ccc4cccc(C(=O)Nc5nc6ccccc6s5)c4c3)nc2C(=O)O)cnn1CC12CC3(C)CC(C)(C1)CC(OCCNCCC(=O)O)(C3)C2	> 11.00
2) Cc1c(-c2ccc(N3CCc4cccc(C(=O)Nc5nc6ccccc6s5)c4C3)nc2C(=O)O)cnn1CC12CC3(C)CC(C)(C1)CC(OCCOCCNCCCP(=O)(O)O)(C3)C2	> 12.00
3) Cc1c(-c2ccc(-c3ccc4c(c3)N(C(=O)Nc3nc5ncccc5s3)CCC4)nc2C(=O)O)cnn1CC12CC3(C)CC(C)(C1)CC(OCCNCCS(=O)(=O)O)(C3)C2	> 12.00

====

test system: permeabilized Bcl-xL dependent Molt-4 cells; assay: Cytochrome C release in selectively (digitonin) permeabilized Molt-4 cells; format: cell-based, human; conditions: 4 h treatment, read-out: Molt-4 Permeabilized Cyt C Release
assay readout: EC50

1) Cc1c(-c2ccc(N3CCc4cccc(C(=O)Nc5nc6ccccc6s5)c4C3)nc2C(=O)O)cnn1CC12CC3(C)CC(C)(C1)CC(OCCN(CCOCCOCCN)Cc1ccc(CC4O[C@H](C(=O)O)[C@@H](O)[C@H](O)[C@H]4O)cc1)(C3)C2 (some centres unmarked)	< 0.5 nM
2) Cc1c(-c2ccc(N3CCc4cccc(C(=O)Nc5nc6ccccc6s5)c4C3)nc2C(=O)O)cnn1CC12CC3(C)CC(C)(C1)CC(OCCN(C)C(=O)[C@@H](N)CCCC[N+](C)(C)C)(C3)C2	< 0.5 nM

====

Reported Ki by item:
target: Bcl-xL (Homo sapiens); test: Time Resolved-Fluorescence Resonance Energy Transfer (TR-FRET) binding assay, competition with probe F-Bak; details: in the presence of 1% HS; read-out: Bcl-xL Binding Ki (nM, 1% HS)
assay readout: Ki (nM)

1) Cc1c(-c2ccc(-c3ccc4cccc(C(=O)Nc5nc6ccccc6s5)c4c3)nc2C(=O)O)cnn1CC12CC3(C)CC(C)(C1)CC(OCCNCCC(=O)O)(C3)C2 [Example 1.68]	0.32
2) Cc1c(-c2ccc(N3CCc4cccc(C(=O)Nc5nc6ccccc6s5)c4C3)nc2C(=O)O)cnn1CC12CC3(C)CC(C)(C1)CC(OCCNCCCC(=O)O)(C3)C2 [Example 1.56]	0.123
3) Cc1c(-c2ccc(N3CCc4cccc(C(=O)Nc5nc6ccccc6s5)c4C3)nc2C(=O)O)cnn1CC12CC3(C)CC(C)(C1)CC(OCCN(CCCP(=O)(O)O)C1CCNCC1)(C3)C2 [Example 1.26]	0.11
4) Cc1c(-c2ccc(N3CCc4cccc(C(=O)Nc5nc6ccccc6s5)c4C3)nc2C(=O)O)cnn1CC12CC3(C)CC(C)(C1)CC(OCCN(CCS(=O)(=O)O)C1CNC1)(C3)C2 [Example 1.60]	0.049
5) Cc1c(-c2ccc(-c3ccc4c(c3)N(C(=O)Nc3nc5ccccc5s3)CCC4)nc2C(=O)O)cnn1CC12CC3(C)CC(C)(C1)CC(OCCNCCS(=O)(=O)O)(C3)C2 [Example 1.24]	0.074

====

biological target: Bcl-xL (Homo sapiens, UniProt Q07817); test: Time Resolved-Fluorescence Resonance Energy Transfer (TR-FRET) binding assay, competition with probe F-Bak; settings: without HS; read-out: Bcl-xL Binding Ki
Sequence (Q07817 whole entry): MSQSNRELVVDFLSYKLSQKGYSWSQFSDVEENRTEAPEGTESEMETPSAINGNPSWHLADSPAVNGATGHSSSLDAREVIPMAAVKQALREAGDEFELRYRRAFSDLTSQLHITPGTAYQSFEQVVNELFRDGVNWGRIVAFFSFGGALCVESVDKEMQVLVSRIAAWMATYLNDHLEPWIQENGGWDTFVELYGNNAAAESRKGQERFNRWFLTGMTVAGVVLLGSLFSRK
Below, each of the molecules is paired with its reported Ki value.
assay readout: Ki (pM)

1. Cc1c(-c2ccc(N3CCc4cccc(C(=O)Nc5nc6ncccc6s5)c4C3)nc2C(=O)O)cnn1CC12CC3(C)CC(C)(C1)CC(OCCN(CCCP(=O)(O)O)C1CCNCC1)(C3)C2	7.3
2. Cc1c(-c2ccc(N3CCc4cccc(C(=O)Nc5nc6ccccc6s5)c4C3)nc2C(=O)O)cnn1CC12CC3(C)CC(C)(C1)CC(OCCNCC[C@H](O)CO)(C3)C2	16

====

Property: log10 of Ki; scope: individual compounds
Target: Bcl-xL (Homo sapiens)
Experiment: Time Resolved-Fluorescence Resonance Energy Transfer (TR-FRET) binding assay, competition with probe F-Bak
Conditions: in the presence of 1% HS; read-out: Bcl-xL Binding Ki (nM, 1% HS)
Method: Tb-anti-GST antibody was purchased from Invitrogen (Catalog No. PV4216). For the assay, test compounds were serially diluted in DMSO starting at 50 μM (2× starting concentration; 10% DMSO) and 10 μL transferred into a 384-well plate. […] The samples were then mixed on a shaker for 1 minute and incubated for an additional 2 hours at room temperature. […] Dissociation constants (Ki) were determined using Wang's equation (Wang, 1995, FEBS Lett. 360:111-114). […]
assay readout: log10 of Ki (log10 of the value in nM)

1) Cc1c(-c2ccc(N3CCc4cccc(C(=O)Nc5nc6ncccc6s5)c4C3)nc2C(=O)O)cnn1CC12CC3(C)CC(C)(C1)CC(OCCNCCS(=O)(=O)O)(C3)C2	-1.00
2) Cc1c(-c2ccc(N3CCc4cccc(C(=O)Nc5nc6ccccc6s5)c4C3)nc2C(=O)O)cnn1CC12CC3(C)CC(C)(C1)CC(OCCN(CCS(=O)(=O)O)C1CCNCC1)(C3)C2	-0.92
3) Cc1c(-c2ccc(N3CCc4cccc(C(=O)Nc5nc6ccccc6s5)c4C3)nc2C(=O)O)cnn1CC12CC3(C)CC(C)(C1)CC(SCCNCCS(=O)(=O)O)(C3)C2	0.62
4) Cc1c(-c2ccc(-c3ccc4c(c3)N(C(=O)Nc3nc5ncccc5s3)CCC4)nc2C(=O)O)cnn1CC12CC3(C)CC(C)(C1)CC(OCCNCCS(=O)(=O)O)(C3)C2	-1.06
5) Cc1c(-c2ccc(N3CCc4cccc(C(=O)Nc5nc6ccccc6s5)c4C3)nc2C(=O)O)cnn1CC12CC3(C)CC(C)(C1)CC(OCCNC(=O)[C@H](CC(=O)O)NCCC(=O)O)(C3)C2	-0.55

====

target: Bcl-xL (Homo sapiens, UniProt Q07817); experiment: Time Resolved-Fluorescence Resonance Energy Transfer (TR-FRET) binding assay, competition with probe F-Bak; conditions: in the presence of 1% HS; read-out: Bcl-xL Binding Ki (nM, 1% HS)
assay readout: Ki (nM)

1. Cc1c(-c2ccc(N3CCc4cccc(C(=O)Nc5nc6ccccc6s5)c4C3)nc2C(=O)O)cnn1CC12CC3(C)CC(C)(C1)CC(OCCOCCNCc1ccc(O[C@@H]4O[C@H](CO)[C@@H](O)[C@@H](O)[C@H]4O)cc1)(C3)C2	0.027
2. Cc1c(-c2ccc(N3CCc4cccc(C(=O)Nc5nc6ccccc6s5)c4C3)nc2C(=O)O)cnn1CC12CC3(C)CC(C)(C1)CC(OCCNC[C@@H](O)[C@@H](O)[C@H](O)CO)(C3)C2	1.05
3. Cc1c(-c2ccc(N3CCc4cccc(C(=O)Nc5nc6cccnc6s5)c4C3)nc2C(=O)O)cnn1CC12CC3(C)CC(C)(C1)CC(OCCNCCS(=O)(=O)O)(C3)C2	7.11
4. Cc1c(-c2ccc(-c3ccc4c(c3)N(C(=O)Nc3nc5ccccc5s3)CCC4)nc2C(=O)O)cnn1CC12CC3(C)CC(C)(C1)CC(OCCNCCP(=O)(O)O)(C3)C2	0.47
